# target under test: T1, murine IL-21R extracellular domain His-Flag fusion protein (murine, UniProt Q9JHX3 20-237)
# T1 construct: Biotinylated in the ELISAs; also called mIL-21R-H/F; murine IL-21R-H/F
# assay remarks: SPR, Ab captured on anti-human IgG
metric: pKd
Answers are plain numbers, as −log10 of the molar value.

Problem: Could you share which pKd value was measured for AbT (antibody, human IgG1, V domains shown, CDR3 graft, residue limits derived as for m29; also called VHP/VL9; VHPTM/VL9) VH: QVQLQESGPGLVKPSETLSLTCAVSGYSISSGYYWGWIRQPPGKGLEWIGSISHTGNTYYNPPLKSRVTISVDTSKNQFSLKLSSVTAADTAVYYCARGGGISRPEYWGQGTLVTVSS VL: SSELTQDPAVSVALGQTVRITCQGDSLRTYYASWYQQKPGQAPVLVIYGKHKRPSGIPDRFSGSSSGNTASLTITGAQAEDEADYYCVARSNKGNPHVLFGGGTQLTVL ?
Result: 7.80
